- protocol.summary: Plasma AMG 232 pharmacokinetics (HPLC-MS, non-compartmental analysis)
- Assay type: in vivo, human
- condition.notes: human, plasma, oral, 240 mg, Day 1, 240-mg dose expansion, ER + PR– Breast (n = 4); read-out: AUC24h, mean (SD)
readout.kind: AUC(0-t)
A complete answer gives the number and then names the unit.

Which measured AUC(0-t) value corresponds to CC(C)[C@@H](CS(=O)(=O)C(C)C)N1C(=O)[C@@](C)(CC(=O)O)C[C@H](c2cccc(Cl)c2)[C@H]1c1ccc(Cl)cc1 ?
9430 ng·h/mL

* * *

- protocol.summary: Plasma AMG 232 pharmacokinetics (HPLC-MS, non-compartmental analysis)
- Assay type: in vivo, human
- condition.notes: human, plasma, oral, 15 mg, Day 1, dose escalation, 15 mg (n = 3); read-out: AUC24h, mean (SD)
readout.kind: AUC(0-t) (ng·h/mL)
Give the value, in units of ng·h/mL, as a plain number.

Form field: reported AUC(0-t) of CC(C)[C@@H](CS(=O)(=O)C(C)C)N1C(=O)[C@@](C)(CC(=O)O)C[C@H](c2cccc(Cl)c2)[C@H]1c1ccc(Cl)cc1 [AMG 232]
884

* * *

- protocol.summary: Plasma AMG 232 pharmacokinetics (HPLC-MS, non-compartmental analysis)
- Assay type: in vivo, human
- condition.notes: human, plasma, oral, 240 mg, Day 7, 240-mg dose expansion, ER + PR+ Breast (n = 6–8); read-out: Vz/F, mean (SD)
readout.kind: Vd/F (L)
Please respond with the number in L and leave the unit unwritten.

Can you look up the measured Vd/F of CC(C)[C@@H](CS(=O)(=O)C(C)C)N1C(=O)[C@@](C)(CC(=O)O)C[C@H](c2cccc(Cl)c2)[C@H]1c1ccc(Cl)cc1 [AMG 232] for me?
689

* * *

- protocol.summary: Plasma AMG 232 pharmacokinetics (HPLC-MS, non-compartmental analysis)
- Format: in vivo, human
- condition.notes: human, plasma, oral, 15 mg, Day 1, dose escalation, 15 mg (n = 3); read-out: tmax, median (range)
readout.kind: Tmax (h)
Respond numerically; units are h and should not be typed.

# lookup: Tmax of CC(C)[C@@H](CS(=O)(=O)C(C)C)N1C(=O)[C@@](C)(CC(=O)O)C[C@H](c2cccc(Cl)c2)[C@H]1c1ccc(Cl)cc1
3.1

* * *

- protocol.summary: Plasma AMG 232 pharmacokinetics (HPLC-MS, non-compartmental analysis)
- Type: in vivo, human
- condition.notes: human, plasma, oral, 240 mg, Day 1, 240-mg dose expansion, Total (n = 47–67); read-out: tmax, median (range)
readout.kind: Tmax (h)
Answer format: numeric, h implied, no suffix.

Which measured Tmax value corresponds to CC(C)[C@@H](CS(=O)(=O)C(C)C)N1C(=O)[C@@](C)(CC(=O)O)C[C@H](c2cccc(Cl)c2)[C@H]1c1ccc(Cl)cc1 ?
3

* * *

- protocol.summary: Plasma AMG 232 pharmacokinetics (HPLC-MS, non-compartmental analysis)
- Assay type: in vivo, human
- condition.notes: human, plasma, oral, 15 mg, Day 7, dose escalation, 15 mg (n = 3); read-out: AUC24h, mean (SD)
readout.kind: AUC(0-t) (ng·h/mL)
Respond with the bare value in ng·h/mL.

So what's the measured AUC(0-t) for this one? CC(C)[C@@H](CS(=O)(=O)C(C)C)N1C(=O)[C@@](C)(CC(=O)O)C[C@H](c2cccc(Cl)c2)[C@H]1c1ccc(Cl)cc1
949
